Assay: Dose that causes approximately 50% lethality in mice, when given perorally
Type: ADME, organism-based
Settings: mouse, in vivo, po
Rule for this label: y means LD50 is less than 900 mg/kg; n means LD50 is at least 900 mg/kg.

Consider the following illustrative entries.
• CC(=O)NCC(=O)/N=C1\SCCN1C = n
• CN1CCS/C1=N\C(=O)CCC(=O)/N=C1/SCCN1C = n
• CN1CCS/C1=N\CNC(=O)c1ccccc1 = y
• CN1CCS/C1=N\C(=O)CN = n
• CN1CCS/C1=N\C(=O)c1cccnc1 = y

Now for a further compound.
## Task Dear reviewer, please state whether CN1CCS/C1=N\C(=O)/N=C1\SCCN1C has LD50 strictly beneath 900 mg/kg.
## Result n
